experiment description: basal HepG2 mitochondrial membrane potential changes, profiling panel, cell-based, JC-1 fluorescence, 24 h, 100 nL compound (AID 1167); further: test concentration not given here
assay setup: higher = more signal
Label rule met for high-side z-score (at or above 0.9) and rule not met for low-side z-score (below it).

> print(dat)
                                    molecule    class.name
 1  CO[C@H]1COC(=O)CC=C[C@@H](C)COC(=O)[C@@H](OCc2ccccc2)C=C[C@@H]1C      rule met
 2  CCOC(=O)NN=C1C[C@@H](O)[C@@H](O)[C@@H]2[C@@H]3C(=O)N(Cc4ccccc4)C(=O)[C@@H]3CC[C@@H]12  rule not met
 3  CCCNC(=O)OC[C@H]1O[C@H](CCON=C(C)CCC(=O)OC[C@H]2O[C@H](C#Cc3ccccc3)C=C[C@@H]2Oc2ccc(C)cc2)C=C[C@@H]1Oc1ccc(OC)cc1      rule met
 4  CC(C)=NOCc1ccc(-c2cn([C@@H]3COC[C@H]3O)nn2)cc1  rule not met
 5  C[C@@H]1CC[C@@H](C(=O)O)N[C@H]1c1ccc(-c2ccco2)cc1      rule met
 6  CCOC(=O)CCN1C(=O)[C@H]2[C@H]3[C@H](O)[C@H](O)CC(=NNC(=O)OCC)[C@@H]3CC[C@H]2C1=O  rule not met
 7  CC(C)CCN1CCc2nc(-c3ccccc3)c3c(c2C1)CO[C@@H](C)C3  rule not met
 8  Cc1cc2c(nc1C)CCCN2CC(C)ON=C[C@@H](C)[C@H](OCc1ccccc1)C(C)C (stereo partly drawn)  rule not met
 9  CC(=O)OC[C@H]1O[C@H](C#CC(C)(C)C)C=C[C@@H]1OC(C)=O  rule not met
10  CC(C)CON=C1C[C@@H](O)[C@@H](O)[C@@H]2[C@@H]3C(=O)N(c4cccc(Oc5ccccc5)c4)C(=O)[C@@H]3CC[C@H]12      rule met
11  Cc1ccc(S(=O)(=O)N[C@H]2COC(=O)[C@@H](C)COC(=O)[C@H](C)NC(=O)CC=C[C@H]2C)cc1  rule not met
12  CCOC(=O)[C@H](CC(C)C)NC(=O)CCC1CC(OC(=O)NCc2cccc3ccccc23)CC2(CCCC(COC(=O)NCc3ccccc3)O2)O1 (stereo partly drawn)      rule met
13  CO[C@@H]1COC(=O)CC=C[C@H](C)COC(=O)[C@H](C)NC(=O)CC=C[C@H]1C      rule met
14  CCN1C(=O)[C@H]2[C@H]3[C@H](O)[C@H](O)CC(=NNC(=O)OCc4ccc(OC)cc4)[C@H]3CC[C@H]2C1=O  rule not met
15  COC(=O)[C@H](C)NC(=O)CCC1CC(OC(=O)NCCc2ccc(F)cc2)CC2(CCCC(COC(=O)NCCCN3CCCC3=O)O2)O1 (stereo partly drawn)  rule not met
16  CC(C)=NO[C@@H](C)c1cc(-c2c(C)cc(C)cc2C)no1  rule not met
17  CO[C@@H]1C=CCC(=O)N2CCC[C@H]2C(=O)OC[C@H](C)C(=O)OC[C@H]1C  rule not met
18  C=C(C)C(=O)OC[C@@H]1CN2[C@@H](CC[C@@H](C)[C@@H]2c2ccc(Br)cc2)C(=O)O1  rule not met

---

experiment description: binders of probe aFGF10 on microarray, primary screen, stem cell growth factor project, biochemical, small-molecule microarray, fluorescence 635/667 (AID 1071);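 further: score merges 667 nm spot intensity and signal to noise from triplicate slides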
assay setup: higher = more signal
Measured composite z-score, listed per entry for reference.
endpoint: composite z-score

> print(dat)
                                   molecule  obs.value
1  C[C@@H](ON=C1[C@H]2CCn3c(=O)n(-c4ccccc4)c(=O)n3[C@H]2[C@H](O)[C@@H]2O[C@H]12)c1cn([C@H](CO)Cc2ccccc2)nn1      0.449
2  CCOC(=O)CCN1C(=O)[C@H]2[C@H]3[C@H](O)[C@H](O)CC(=NNC(=O)OCC)[C@@H]3CC[C@H]2C1=O      0.348
3  CCN1C(=O)[C@H]2[C@H]3[C@H](O)[C@H](O)CC(=NOC)[C@@H]3CC[C@H]2C1=O      0.369
4  COC(=O)[C@H](C)NC(=O)CCC1CC(OC(=O)NCCc2ccc(F)cc2)CC2(CCCC(COC(=O)NCCCN3CCCC3=O)O2)O1 (some centres undefined)      0.404
